Subject of test: PIKfyve (Homo sapiens, UniProt Q9Y2I7)
Construct: Recombinant GST-PIKfyve (full-length, #11-118)
Sequence (Q9Y2I7 2-2098): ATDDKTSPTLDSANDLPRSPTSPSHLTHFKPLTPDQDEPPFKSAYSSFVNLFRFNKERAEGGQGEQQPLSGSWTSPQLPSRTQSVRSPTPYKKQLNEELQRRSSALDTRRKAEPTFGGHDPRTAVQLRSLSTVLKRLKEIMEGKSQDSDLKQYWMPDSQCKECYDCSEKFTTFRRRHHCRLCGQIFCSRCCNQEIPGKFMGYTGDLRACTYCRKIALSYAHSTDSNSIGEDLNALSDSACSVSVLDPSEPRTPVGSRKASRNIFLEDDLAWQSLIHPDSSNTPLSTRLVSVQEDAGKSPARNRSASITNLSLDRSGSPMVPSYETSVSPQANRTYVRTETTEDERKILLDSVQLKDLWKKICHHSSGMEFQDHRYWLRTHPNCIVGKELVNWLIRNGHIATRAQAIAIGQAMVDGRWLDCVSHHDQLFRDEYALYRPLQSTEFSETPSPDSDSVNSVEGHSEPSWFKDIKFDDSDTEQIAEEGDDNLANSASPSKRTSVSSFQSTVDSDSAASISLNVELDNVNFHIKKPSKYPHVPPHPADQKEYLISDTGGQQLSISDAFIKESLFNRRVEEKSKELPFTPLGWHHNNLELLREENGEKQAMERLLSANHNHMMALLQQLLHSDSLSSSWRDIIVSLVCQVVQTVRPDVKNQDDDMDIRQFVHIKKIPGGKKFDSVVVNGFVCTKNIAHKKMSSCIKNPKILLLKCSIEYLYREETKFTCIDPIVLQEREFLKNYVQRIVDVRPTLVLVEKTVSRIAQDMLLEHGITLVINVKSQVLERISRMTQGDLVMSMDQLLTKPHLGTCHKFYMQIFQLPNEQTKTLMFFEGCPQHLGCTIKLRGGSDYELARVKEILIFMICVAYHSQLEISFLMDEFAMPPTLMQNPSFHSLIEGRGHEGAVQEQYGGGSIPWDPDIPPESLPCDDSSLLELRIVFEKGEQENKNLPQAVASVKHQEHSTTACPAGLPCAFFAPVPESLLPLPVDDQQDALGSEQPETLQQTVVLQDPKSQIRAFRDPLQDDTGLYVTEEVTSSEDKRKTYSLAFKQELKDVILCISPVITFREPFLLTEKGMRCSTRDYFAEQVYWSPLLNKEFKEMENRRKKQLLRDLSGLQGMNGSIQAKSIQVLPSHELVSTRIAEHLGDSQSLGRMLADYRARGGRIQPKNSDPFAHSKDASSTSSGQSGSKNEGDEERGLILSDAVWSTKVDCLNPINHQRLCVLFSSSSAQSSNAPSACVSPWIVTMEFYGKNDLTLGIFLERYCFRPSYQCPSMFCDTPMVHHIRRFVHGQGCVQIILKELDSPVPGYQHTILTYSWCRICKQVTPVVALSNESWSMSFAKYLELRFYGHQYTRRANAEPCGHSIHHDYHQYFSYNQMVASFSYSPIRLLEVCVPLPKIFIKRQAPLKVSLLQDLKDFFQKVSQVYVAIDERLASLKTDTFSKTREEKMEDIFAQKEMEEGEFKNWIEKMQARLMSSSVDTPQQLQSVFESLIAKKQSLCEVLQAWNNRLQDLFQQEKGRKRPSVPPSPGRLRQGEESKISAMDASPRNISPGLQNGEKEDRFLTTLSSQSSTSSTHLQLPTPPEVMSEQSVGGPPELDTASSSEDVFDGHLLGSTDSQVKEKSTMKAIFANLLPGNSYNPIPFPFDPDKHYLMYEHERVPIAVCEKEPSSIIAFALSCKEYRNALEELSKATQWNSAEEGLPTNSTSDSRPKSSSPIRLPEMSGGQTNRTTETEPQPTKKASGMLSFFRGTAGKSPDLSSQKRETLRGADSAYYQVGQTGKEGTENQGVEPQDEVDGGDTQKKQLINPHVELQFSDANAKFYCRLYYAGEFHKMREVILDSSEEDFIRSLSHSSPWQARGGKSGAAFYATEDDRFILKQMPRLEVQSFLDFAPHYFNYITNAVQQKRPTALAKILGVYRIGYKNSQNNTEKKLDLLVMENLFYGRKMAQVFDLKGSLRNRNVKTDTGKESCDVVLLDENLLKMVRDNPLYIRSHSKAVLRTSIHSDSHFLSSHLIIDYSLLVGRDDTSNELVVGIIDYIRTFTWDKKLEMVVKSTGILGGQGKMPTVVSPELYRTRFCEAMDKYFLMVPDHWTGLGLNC
Assay: in vitro lipid kinase assay, ADP-Glo luminescence, PI([…])P substrate

# Molecule, IC50 (nM)
rows = [
    ("Oc1ccc(-c2nc(-c3ccncc3)c(-c3ccc(F)cc3)[nH]2)cc1 [SB202190]", 355),
]
